# subject-of-test: Factor Xa (Homo sapiens, UniProt P00742)
# Sequence (P00742 235-488 limits assumed): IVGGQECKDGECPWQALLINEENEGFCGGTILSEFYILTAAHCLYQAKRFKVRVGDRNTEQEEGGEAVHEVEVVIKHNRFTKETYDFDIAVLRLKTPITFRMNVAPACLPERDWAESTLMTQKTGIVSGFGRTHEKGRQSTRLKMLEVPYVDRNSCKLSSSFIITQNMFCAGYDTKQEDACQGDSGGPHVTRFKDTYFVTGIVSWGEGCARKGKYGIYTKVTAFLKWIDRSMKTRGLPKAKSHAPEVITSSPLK
# Sequence (P00742 41-179 limits assumed): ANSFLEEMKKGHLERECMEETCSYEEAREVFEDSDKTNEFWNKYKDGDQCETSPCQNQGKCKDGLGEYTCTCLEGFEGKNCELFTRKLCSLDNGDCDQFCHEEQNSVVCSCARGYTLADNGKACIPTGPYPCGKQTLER
# protocol: Factor Xa amidolytic assay (chromogenic substrate S-2765)
# Type: biochemical
# assay-setup: room temperature, pH 7.5, 5 min preincubation; read-out: Inhibitory Activity (IC50) Factor Xa Xa
parameter-measured: IC50

[[record]]
compound = "COC(=O)C(Cc1cccc(C(=N)N)c1)NC(=O)c1ccc(OC2CCN(C(C)=N)CC2)cc1 (stereo not shown)"
subject_of_test = "Factor Xa (Homo sapiens, UniProt P00742)"
result = "201 nM"


Origin of measurements: patent US20020065303A1
